- System Tested: T1, human c-Met, membrane-bound on cells (human, UniProt P08581 25-1390)
- T1 construct: whole, on cells; A431 cells carry on average 30,000 copies of c-Met per cell (Qifi); also called c-Met expressed on A431 cells; c-Met on A549 cells
- T1 sequence (P08581 25-1390): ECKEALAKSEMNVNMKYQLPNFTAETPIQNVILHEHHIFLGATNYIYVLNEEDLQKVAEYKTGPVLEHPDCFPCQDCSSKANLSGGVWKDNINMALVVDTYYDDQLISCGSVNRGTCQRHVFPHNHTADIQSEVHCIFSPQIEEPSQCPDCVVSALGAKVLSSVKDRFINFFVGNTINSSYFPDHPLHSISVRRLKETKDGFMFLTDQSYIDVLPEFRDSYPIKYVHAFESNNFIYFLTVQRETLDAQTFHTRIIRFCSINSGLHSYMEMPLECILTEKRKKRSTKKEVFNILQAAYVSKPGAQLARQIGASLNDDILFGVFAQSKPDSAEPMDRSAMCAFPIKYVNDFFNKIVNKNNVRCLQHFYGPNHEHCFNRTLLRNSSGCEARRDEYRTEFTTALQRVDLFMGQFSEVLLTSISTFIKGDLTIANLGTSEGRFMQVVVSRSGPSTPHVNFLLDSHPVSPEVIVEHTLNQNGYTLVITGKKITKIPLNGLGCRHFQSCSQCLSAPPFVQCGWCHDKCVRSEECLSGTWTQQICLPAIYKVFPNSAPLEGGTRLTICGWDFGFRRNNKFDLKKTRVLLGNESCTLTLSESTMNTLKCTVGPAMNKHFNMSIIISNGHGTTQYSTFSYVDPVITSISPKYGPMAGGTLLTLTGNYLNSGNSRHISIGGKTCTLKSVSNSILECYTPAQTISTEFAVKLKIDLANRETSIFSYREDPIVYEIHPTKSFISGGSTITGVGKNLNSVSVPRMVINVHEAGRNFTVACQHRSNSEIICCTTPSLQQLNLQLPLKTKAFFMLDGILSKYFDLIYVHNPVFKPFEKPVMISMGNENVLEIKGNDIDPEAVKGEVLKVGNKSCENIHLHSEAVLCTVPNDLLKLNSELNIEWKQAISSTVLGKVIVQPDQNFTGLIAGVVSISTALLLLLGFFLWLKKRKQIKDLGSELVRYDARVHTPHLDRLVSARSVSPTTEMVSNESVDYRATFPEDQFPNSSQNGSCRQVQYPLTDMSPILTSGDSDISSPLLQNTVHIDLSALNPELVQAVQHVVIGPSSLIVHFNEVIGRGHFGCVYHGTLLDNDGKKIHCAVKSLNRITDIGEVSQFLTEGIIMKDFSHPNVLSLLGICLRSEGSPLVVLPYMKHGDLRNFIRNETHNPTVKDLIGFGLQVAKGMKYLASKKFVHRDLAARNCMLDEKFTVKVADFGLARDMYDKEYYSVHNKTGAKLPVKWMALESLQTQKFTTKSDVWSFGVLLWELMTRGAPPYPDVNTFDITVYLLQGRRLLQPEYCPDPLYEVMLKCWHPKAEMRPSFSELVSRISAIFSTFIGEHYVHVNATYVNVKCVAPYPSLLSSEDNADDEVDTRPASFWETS
- Assay Explanation: flow cytometry on A431 cells (PE goat anti-human IgG); bottom panel
Endpoint Label: pEC50
In plain terms, pEC50 is the concentration in mol/L turned into minus its base-10 logarithm.

Worked examples follow.
>>> data_value("anti-c-Met HuMab 098 (IgG1) (antibody, V domains shown, also called TH1016-098; PC1016-098) VH: QVQLVQSGAEVKKPGASVKVSCKASGYTFTNFGISWVRQAPGQGLEWMGWISAFNGHTDYSQKVQGRVTMTTDTSTSTAYMELRSLRSDDTAVFYCARSHYYGSGSPFDYWGQGTLVTVSS VL: DIQMTQSPSSLSASVGDRVTITCRASQGISNWLAWYQQKPEKAPKSLIYAASSLQSGVPSRFSGSGSGTDFTLTISSLQPEDFATYYCHQYKSYPWTFGQGTKVEIK")
9.05
>>> data_value("UniBody molecule of antibody 181 (other) VH: QVQLVQSGAEVKKPGASVKVSCKASGYTFTSYGISWVRQAPGQGLEWMGWISTYNGYTNYAQKLQGRVTMTTDTSTSTAYMELRSLRSDDTAVYYCARDLRGTAYFDYWGQGTLVTVSS VL: DIQMTQSPSSVSASVGDRVTITCRASQGISNWLAWYQHKPGKAPKLLIYAASSLLSGVPSRFSGSGSGTDFTLTISSLQPEDFATYYCQQANSFPITFGQGTRLEIK")
9.07

For the next question, use this binder.
Qu. Entry UniBody molecule of antibody 098 (other) VH: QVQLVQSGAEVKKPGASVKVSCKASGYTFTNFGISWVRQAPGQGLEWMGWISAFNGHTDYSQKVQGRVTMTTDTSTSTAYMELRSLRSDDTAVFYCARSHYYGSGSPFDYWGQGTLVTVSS VL: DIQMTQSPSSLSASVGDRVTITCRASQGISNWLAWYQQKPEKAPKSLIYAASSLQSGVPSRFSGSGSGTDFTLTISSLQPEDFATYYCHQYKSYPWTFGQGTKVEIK : reported pEC50 = ?
Ans. 8.94
